- Tested on: Kunming mice
- assay-summary: Influence on hypnosis effect with pentobarbital sodium doses at the threshold (50 mg/kg i.p.)
- Assay type: in vivo
- details: 100 mg/kg intragastric single dose, pentobarbital sodium 50 mg/kg i.p. 60 min later, x ± s, n = 10
Known duration of sleep of a selection of compounds
measure-name: duration of sleep (min)

1. COc1ccc(-c2cc(=O)c3c(OC)c(OC)c(OC)cc3o2)cc1OC :: 59.21
2. COc1cc(OC)c2c(=O)cc(-c3ccc(OC)c(OC)c3)oc2c1 [Example 7, 5,7,3′,4′-tetramethoxyl-flavone] :: 87.43
3. C#Cc1ccc(-c2cc(=O)c3cc(F)c(C(=O)O)c(O)c3o2)cc1CCCCCCCCCCCCCCCCCCCC :: 51.56
4. COc1c(O)cc(C2CC(=O)c3c(O)cc(O)cc3O2)cc1C(=O)O (stereo not shown) :: 65.35
5. COc1ccc(-c2cc(=O)c3c(OC)c(OC)c(OC)c(OC)c3o2)cc1OC :: 60.26
6. CC=Cc1cc(C(=O)O)c2c(=O)cc(-c3ccc(C#N)c(C(=O)O)c3)oc2c1 :: 61.35
7. COc1cc(C2Oc3c(OC)c(OC)c(OC)c(O)c3C(=O)C2OC)c(OC)c(OC)c1OC (stereo not shown) :: 64.55
8. Cc1cc(C2CC(=O)c3c(cccc3[N+](=O)[O-])O2)ccc1Oc1ccccc1 (stereo not shown) :: 87.42
9. COc1cc(OC)cc(C2CC(=O)c3c(OC)cc(OC)cc3O2)c1 (stereo not shown) :: 57.65
10. COc1ccc(-c2cc(=O)c3c(O)cc(OC)c(OC)c3o2)cc1O :: 53.55
11. COc1cc(OC)c2c(=O)cc(-c3cc(OC)c(OC)c(OC)c3)oc2c1 :: 98.33
12. COc1ccc(C2CC(=O)c3cc(CCS(=O)(=O)O)c(C4CCNC4)c(N)c3O2)cc1SC#N (stereo not shown) :: 65.94
13. COc1cc(C2Oc3c(cc(OC)c(OC)c3OC)C(=O)C2OC)c(O)c(OC)c1OC (stereo not shown) :: 64.09
14. COc1ccc(C2CC(=O)c3c(O)cccc3O2)cc1O (stereo not shown) :: 65.03
15. CCc1cccc2c1C(=O)CC(c1cc(F)cc(C(=O)O)c1)O2 (stereo not shown) :: 52.86
16. COc1ccc(-c2cc(=O)c3cc(OC)c(OC)c(OC)c3o2)cc1OC :: 62.15

====

- Tested on: Kunming mice
- assay-summary: Influence on autonomic activity of normal mice (ZIL-2 mice autonomic activity meter, counts within 10 min)
- Type: in vivo
- details: intragastric, 50 mg/kg, 1 h after administration, x ± s, n = 10
measure-name: Times of activities in 1 h after drug administration/10 min

1) C=Cc1cc(C2CC(=O)c3cc(C(N)=O)c(C4CCSC4)c(Oc4ccccc4)c3O2)ccc1N (stereo not shown) :: 245.4 ± 45.9 /10 min
2) COc1ccc(-c2cc(=O)c3cc(OC)c(OC)c(OC)c3o2)cc1OC :: 169.6 ± 51.3 /10 min
3) N#CSc1ccc(-c2cc(=O)c3cc(N)c(F)c(C#N)c3o2)cc1O :: 248.9 ± 61.1 /10 min
4) C#Cc1ccc(-c2cc(=O)c3cc(F)c(C(=O)O)c(O)c3o2)cc1CCCCCCCCCCCCCCCCCCCC :: 266.4 ± 51.6 /10 min

====

- Tested on: Kunming mice
- assay-summary: Influence on autonomic activity of normal mice (ZIL-2 mice autonomic activity meter, counts within 10 min)
- Format: in vivo
- details: intragastric, 50 mg/kg, 1 h after administration, x ± s, n = 10
- Protocol: 1.1 Animals for experiments: Kunming mice, weighting 18.9˜22.2 g for females, and 20.2˜23.0 g for males, licensed under SCXK-(Ji) 2007-0003, and provided by The experimental animal centre, Jilin University. […] After observing the general behavior, in 1 h, 2 h and 24 h after drug administration, respectively, ZIL-2 mice autonomic activity meter is put respectively. Number of autonomic activities of each group of mice is measured within 10 min. […]
measure-name: Times of activities in 1 h after drug administration/10 min

1) Cc1cc(C2CC(=O)c3c(cccc3[N+](=O)[O-])O2)ccc1Oc1ccccc1 (stereo not shown) :: 168.5 ± 53.0 /10 min
2) COc1ccc(C2CC(=O)c3c(OC)c(OC)c(OC)c(OC)c3O2)cc1OC (stereo not shown) :: 145.1 ± 41.6 /10 min
3) CCCc1cc(O)cc2c1C(=O)CC(c1ccc(-c3ccccc3)c([N+](=O)[O-])c1)O2 (stereo not shown) :: 159.9 ± 45.0 /10 min
4) COc1ccc(-c2cc(=O)c3c(OC)c(OC)c(OC)cc3o2)cc1OC :: 257.2 ± 61.3 /10 min
5) COc1ccc(-c2cc(=O)c3c(OC)c(OC)c(OC)c(OC)c3o2)cc1 :: 262.1 ± 55.5 /10 min
6) O=c1cc(-c2cc(O)c(Oc3ccccc3)c(CCCCCCCCCCCCCCCCCCCCCl)c2)oc2cc(C#Cc3ccccc3)cc([N+](=O)[O-])c12 :: 295.5 ± 41.3 /10 min
7) COc1ccc(C2CC(=O)c3c(O)cccc3O2)cc1O (stereo not shown) :: 237.4 ± 41.9 /10 min

====

- Test system: Kunming mice
- assay-summary: Influence on hypnosis effect with pentobarbital sodium doses at the threshold (50 mg/kg i.p.)
- Type: in vivo
- details: 100 mg/kg intragastric single dose, pentobarbital sodium 50 mg/kg i.p. 60 min later, x ± s, n = 10
Binary classification by duration of sleep, with 60 min as an inclusive lower bound for Yes; all other cases are No.

1) COc1ccc(-c2oc3c(OC)c(OC)c(OC)c(OC)c3c(=O)c2OC)cc1OC [Example 41, 3,5,6,7,8,3′,4′-heptamethoxyl-flavone] :: Yes
2) COc1ccc(-c2cc(=O)c3c(OC)c(OC)c(OC)c(OC)c3o2)cc1 [Example 8, 5,6,7,8,4′-penta methoxyl-flavone] :: Yes
3) C=Cc1cc(-c2cc(=O)c3c(C4CCSC4)cc(C(N)=O)cc3o2)cc(N)c1CC (stereo not drawn) [Example 17] :: No
4) CC=Cc1cc(C(=O)O)c2c(=O)cc(-c3cc(C#N)c(F)c(C(=O)O)c3)oc2c1 [Example 22] :: No
5) COc1ccc(C2CC(=O)c3c(O)c(OC)c(OC)c(OC)c3O2)cc1OC (stereo not drawn) [Example 43] :: Yes
6) C=Cc1c(C#N)cc(-c2cc(=O)c3c(C=CC)cc(Cc4ccccc4)cc3o2)cc1[N+](=O)[O-] [Example 20] :: Yes
7) O=C1CC(c2ccc(O)c(O)c2)Oc2cc(O)cc(O)c21 (stereo not drawn) [Example 71] :: No
8) COc1ccc(-c2cc(=O)c3c(O)c(OC)c(OC)c(OC)c3o2)cc1OC [Example 11] :: Yes
9) CC=Cc1c(C(=O)O)cc2c(=O)cc(-c3ccc(F)c(C#N)c3)oc2c1C(=O)O [Example 34] :: No
10) CCCCCc1cc(-c2cc(=O)c3c(CC)cc(CCCCCCl)cc3o2)cc(O)c1Cc1ccccc1 [Example 19] :: No

====

Known rate of sleeping (%) of a selection of compounds
- System: Kunming mice
- assay-summary: Influence on hypnosis effect with pentobarbital sodium doses below the threshold (25 mg/kg i.p.)
- Format: in vivo
- details: test drug 50 mg/kg intragastric single dose, pentobarbital sodium 25 mg/kg i.p. 60 min later, sleep observed in 30 min, n = 10
- Protocol: 1.1 Animals for experiments: Kunming mice, weighting 18.9˜22.2 g for females, and 20.2˜23.0 g for males, licensed under SCXK-(Ji) 2007-0003, and provided by The experimental animal centre, Jilin University. […] The drug is intragastric administered in mice for single time, 2 animals of each group are given drug per round with the dosing interval of 40 min (±5 min). […] After animals undergo loss of righting reflex, number of the animals is recorded, to calculate sleep percentage. […]
Marks after values point to notes of the source that are not given here.
measure-name: rate of sleeping (%)

1) C=Cc1cc(-c2cc(=O)c3c(C4CCSC4)cc(C(N)=O)cc3o2)cc(N)c1CC (stereo not shown) :: 60** %
2) COc1cc(C2Oc3c(cc(OC)c(OC)c3OC)C(=O)C2OC)c(O)c(OC)c1OC (stereo not shown) :: 50* %
3) CCCc1cc(O)cc2c1C(=O)CC(c1ccc(-c3ccccc3)c([N+](=O)[O-])c1)O2 (stereo not shown) :: 80*** %
4) Cc1cc(C2CC(=O)c3c(cccc3[N+](=O)[O-])O2)ccc1Oc1ccccc1 (stereo not shown) :: 80*** %
5) COc1ccc(-c2cc(=O)c3c(OC)cc(O)cc3o2)cc1OC [Example 5, 7-hydroxyl-5,3′,4′-trimethoxyl-flavone] :: 80*** %
6) CC=Cc1cc(C(=O)O)c2c(=O)cc(-c3ccc(C#N)c(C(=O)O)c3)oc2c1 :: 60** %
7) COc1ccc(C2CC(=O)c3c(OC)c(OC)c(OC)c(OC)c3O2)cc1OC (stereo not shown) :: 60** %
